This collection of values is drawn from patent US7056679.

target_under_test: T1, antibody raised against ETAG
T1 construct: read-out of display; also called E-tag antibody; E tag antibody
test_method_notes: phage ELISA; anti-E-tag antibody coated
Reported E-Tag by item:
Answer in ratio over background, number only, no unit symbol.

Examples with answers:
binder: MAGFRGSGLSGYSEARLPRVGAPVPYPDPLEPR (library 20F; not shown: phage gene III coat protein (pCANTAB5E)) [DGI9-20M-4-E3]
observed_measurement: 34.5
//
binder: SRLALSSQHGLSLVAGRRRGGAPVPYPDPLEPR (library 20R (the E-tag is described for library 20F); not shown: phage gene III coat protein (pCANTAB5E)) [DGI9-20M-4-A12]
observed_measurement: 20.7
//
binder: WDWSRFGAQLRGAILGRATGGAPVPYPDPLEPR (library 20R (the E-tag is described for library 20F); not shown: phage gene III coat protein (pCANTAB5E)) [DGI9-20M-4-A627]
observed_measurement: 27.2

We now examine a further binder.
Q: What does the record list as E-Tag for FLLQDFIMDAGSFVKPIGVGGAPVPYPDPLEPR (library 20F; not shown: phage gene III coat protein (pCANTAB5E)) [DGI9-20M-4-A414] ?
Ans: 32.6
